System: CCRF-CEM
Test: Cytoprotection in diethyl maleate-treated human CCRF-CEM cells 0.1 uM incubated for 17 hrs before diethyl maleate challenge by trypan blue dye exclusion method (reference value: 18 +/- 10%)
Format: functional
Activity values for the compounds below.

{"columns": ["COMPOUND", "OUTPUT UNIT", "Activity"],
 "data": [
  ["Cc1cc(N2C(C)CCC2C)nc(CCCCCCCCCCO)c1O (configuration not stated)", "%", 88],
  ["Cc1cc(-n2c(C)ccc2C)nc(CCCCCCCCCCO)c1O", "%", 18],
  ["COC1=C(OC)C(=O)C(CCCCCCCCCCO)=C(C)C1=O", "%", 34],
  ["Cc1c(N(C)C)nc(CCCCCCCCCCO)c(O)c1C", "%", 42],
  ["Cc1cc(N(C)C)nc(CCCCCCCCCCO)c1O", "%", 41],
  ["Cc1cc(N)nc(CCCCCCCCCCO)c1O", "%", 28],
  ["Cc1nc(N(C)C)nc(CCCCCCCCCCO)c1O", "%", 76]
]}

----------
Species: Bos taurus
Experiment: Inhibition of NADH oxidase activity in bovine heart sub-mitochondrial particles assessed as remaining enzyme activity at 10 uM by spectrophotometry relative to untreated control

{"columns": ["COMPOUND", "Activity [%]"],
 "data": [
  ["Cc1nc(N(C)C)nc(CCCCCCCCCCO)c1O", 22],
  ["COC1=C(OC)C(=O)C(CCCCCCCCCCO)=C(C)C1=O", 15],
  ["Cc1cc(N)nc(CCCCCCCCCCO)c1O", 48],
  ["Cc1cc(-n2c(C)ccc2C)nc(CCCCCCCCCCO)c1O", 43],
  ["Cc1cc(N(C)C)nc(CCCCCCCCCCO)c1O", 25],
  ["Cc1c(N(C)C)nc(CCCCCCCCCCO)c(O)c1C", 6],
  ["Cc1cc(N2C(C)CCC2C)nc(CCCCCCCCCCO)c1O (configuration not stated)", 27]
]}

----------
Species: Homo sapiens
Test: Preservation of mitochondrial membrane potential in diethyl maleate-treated human Friedreich's ataxia lymphocytes at 0.5 uM pre-incubated for 16 hrs before diethyl maleate challenge by FACS method (reference value: 25%)
Format: functional

{"columns": ["COMPOUND", "Activity"],
 "data": [
  ["Cc1cc(N(C)C)nc(C)c1O", "29%"],
  ["Cc1cc(N(C)C)nc(CCCCCCCCCCO)c1O", "45%"],
  ["Cc1nc(N(C)C)nc(CCCCCCCCCCO)c1O", "68%"],
  ["Cc1cc(-n2c(C)ccc2C)nc(CCCCCCCCCCO)c1O", "35%"],
  ["Cc1cc(N2C(C)CCC2C)nc(CCCCCCCCCCO)c1O (stereo not drawn)", "66%"],
  ["COC1=C(OC)C(=O)C(CCCCCCCCCCO)=C(C)C1=O [IDEBENONE]", "47%"],
  ["Cc1c(N(C)C)nc(CCCCCCCCCCO)c(O)c1C", "60%"],
  ["Cc1cc(N)nc(CCCCCCCCCCO)c1O", "42%"]
]}

----------
Activity values for the compounds below.
Species: Bos taurus
Experiment: Inhibition of NADH oxidase activity in bovine heart sub-mitochondrial particles assessed as remaining enzyme activity at 1 uM by spectrophotometry relative to untreated control

{"columns": ["COMPOUND", "Activity (%)"],
 "data": [
  ["Cc1cc(N(C)C)nc(CCCCCCCCCCO)c1O", 85],
  ["Cc1cc(N)nc(CCCCCCCCCCO)c1O", 74],
  ["Cc1c(N(C)C)nc(CCCCCCCCCCO)c(O)c1C", 27],
  ["Cc1cc(-n2c(C)ccc2C)nc(CCCCCCCCCCO)c1O", 71],
  ["COC1=C(OC)C(=O)C(CCCCCCCCCCO)=C(C)C1=O [IDEBENONE]", 65],
  ["Cc1cc(N2C(C)CCC2C)nc(CCCCCCCCCCO)c1O (configuration not stated)", 78],
  ["Cc1nc(N(C)C)nc(CCCCCCCCCCO)c1O", 49]
]}
